Test system: A2780 ovarian cancer cell line
Assay: Cell growth inhibition, A2780 ovarian cancer cell line
Format: cell-based
Conditions: A2780; repeated experiments with drug-resistant variants; 24 hours exposure; read-out: IC50 A2780
Method: The compounds are tested on 24 -well trays. Cells growing in a flask are harvested just before they become confluent, counted using a haemocytometer and diluted down with media to a concentration of 1×10^4 cells per ml. The cells are then seeded in the 24 -well trays at a density of […] (i.e. 1 ml of the diluted cell suspension is added to each well). […] They are allowed to grow on for a further 3 days before being counted using a Coulter counter. […]
# key: entry, value: IC50
Write it as a number; the unit µM goes unstated.

Past entries and their recorded results:
[
  {
    "Molecule": "C1=CCC2=C(C1)Cc1ccccc1C2.[Cl][Ru][Cl] [Example 2, [(η^6-C14H14)RuCl2(DMSO)]]",
    "IC50 (µM)": 94
  },
  {
    "Molecule": "CC#N.CC#N.F[P-](F)(F)(F)(F)F.[Cl][Ru+].c1ccc2c(c1)Cc1ccccc1C2 [Example 6, [(η^6-C14H12)RuCl(CH3CN)2]^+PF6^−]",
    "IC50 (µM)": 192
  },
  {
    "Molecule": "C1=CCC2=C(C1)Cc1ccccc1C2.CC#N.CC#N.F[P-](F)(F)(F)(F)F.[Cl][Ru+] [Example 3, [(η^6-C14H14)RuCl(CH3CN)2]^+PF6^−]",
    "IC50 (µM)": 116
  },
  {
    "Molecule": "F[P-](F)(F)(F)(F)F.NCCN.[Cl][Ru+].c1ccc2c(c1)Cc1ccccc1C2 [Example 4, [η^6-C14H12)RuCl(en)]^+PF6−]",
    "IC50 (µM)": 2
  },
  {
    "Molecule": "[Cl][Ru][Cl].c1ccc2c(c1)Cc1ccccc1C2 [Example 5, [(η^6-C14H12)RuCl2(DMSO)]]",
    "IC50 (µM)": 126
  }
]

Report IC50 for C1=CCC2=C(C1)Cc1ccccc1C2.F[P-](F)(F)(F)(F)F.NCCN.[Cl][Ru+] [Example 1, [(η^6-C14H14)RuCl(en)]^+PF6] please.
0.5
